# credit: ChEMBL document CHEMBL5625209

# experiment: Metabolic stability in human plasma assessed as half life measured upto 120 mins by LC-MS/MS analysis
# Type: ADME, cell-free
Provide the recorded half-life for the entries that follow.
The reply should contain only the number, in h.

Task: What value of half-life has been recorded for this entry: CCN(CC)CCOC(=O)c1ccc(N)cc1
Output: 0.0187

Task: What value of half-life has been recorded for this entry: CC(C)(C)c1ccc(C(=O)NC(=S)Nc2ccc(NC(=O)c3ccc(C(C)(C)C)cc3)cc2)cc1
Output: 3.2

* * *

# experiment: AUC(0 to infinity) in Sprague-Dawley rat at 3 mg/kg, iv measured up to 24 hrs by LC-MS analysis
# Format: ADME, organism-based
# testSettings: Sprague-Dawley, in vivo
reportedEndpoint: AUC(0-inf) (ng·h/mL)
The reply should contain only the number, in ng·h/mL.

Task: What value of AUC(0-inf) has been recorded for this entry: CC(C)(C)c1ccc(C(=O)NC(=S)Nc2ccc(NC(=O)c3ccc(C(C)(C)C)cc3)cc2)cc1
Output: 21900

Task: What value of AUC(0-inf) has been recorded for this entry: CC(C)(C)c1ccc(C(=O)NC(=S)Nc2ccc(O)cc2)cc1
Output: 1100
